Molecular target: Tie-2 (Homo sapiens)
Construct: A recombinant fusion protein of GST and the intracellular domains of Tie-2, expressed in insect cells (Hi-5); GST
Sequence (Q02763 770-1124 limits assumed): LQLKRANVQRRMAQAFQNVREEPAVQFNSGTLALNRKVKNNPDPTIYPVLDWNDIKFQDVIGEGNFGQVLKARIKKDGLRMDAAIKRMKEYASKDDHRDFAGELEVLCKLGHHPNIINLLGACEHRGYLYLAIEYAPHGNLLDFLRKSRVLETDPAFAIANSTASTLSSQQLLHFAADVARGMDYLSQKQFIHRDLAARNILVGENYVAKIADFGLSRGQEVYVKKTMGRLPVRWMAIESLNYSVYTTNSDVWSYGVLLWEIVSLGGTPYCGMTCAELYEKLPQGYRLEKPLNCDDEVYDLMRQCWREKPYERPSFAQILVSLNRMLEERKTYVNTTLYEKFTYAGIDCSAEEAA
Test: Tie-2-Kinase HTRF-Assay without Kinase Preactivation (assay 2)
Settings: 10 μM ATP, no kinase preactivation
pIC50: −log10 of the molar value.
measure: pIC50

Below, 2 molecules whose answers are already recorded.
O=C(NCC#Cc1cnc2nc1NCCCNS(=O)(=O)c1cccc(c1)N2)NCc1ccccc1; ≥ 7.00
Cc1ccc(F)c(S(=O)(=O)NCCC#Cc2cnc3nc2NCCCNS(=O)(=O)c2cccc(c2)N3)c1; ≥ 7.00

Take each entry in turn and give its pIC50.
1. O=S1(=O)NCCCNc2nc(ncc2C#CCNS(=O)(=O)c2cccc(Cl)c2Cl)Nc2cccc1c2
2. O=C(NCCC#Cc1cnc2nc1NCCCNS(=O)(=O)c1cccc(c1)N2)Nc1ccccc1
3. O=C(NCC#Cc1cnc2nc1NCCCNS(=O)(=O)c1cccc(c1)N2)Nc1cccc(C(F)(F)F)c1

Resp:
["6.00 to 7.00", "6.00 to 7.00", "≥ 7.00"]
